Assay: qHTS of pediatric cancer cell lines to identify multiple opportunities for drug repurposing: Primary screen for Saos-2 cells (AID 1347097); note: nearly all actives have a fitted effect of over 40% in size
Details: Saos-2 viability, CellTiter-Glo ATP luminescence, 48 h; series mostly up to 46 µM
Protocol: Drug repurposing or repositioning has been offered as a strategy for drug development in oncology programs. This approach has special potential for childhood cancers and other rare or orphan diseases, where the expected return on new drug development has been a disincentive to pharmaceuticals. […] We employed a titration-based paradigm (quantitative high-throughput screening or qHTS), where all compounds were tested at multiple concentrations for their effect on cell viability. […]
Inconclusive results are not listed. Activity calls are given as the source filed them. Calls come from the whole dose curve; as a rule, active = well fitted cell-killing curve with a large enough effect; inconclusive = small, poorly fitted or top-dose-only effect; inactive = no such curve, though single readings can be large or run the other way. Non-standard residues stand in square brackets, D forms with d. Residues, ends and D or L forms follow the SMILES beside them. *: point of attachment. Nva = CCC[C@H](N)C(=O)O; Cbz = O=C(OCc1ccccc1)*
Answer with one of the outcomes given here: active, inactive

Req: Could you check what this test reported for Oc1ccc([C@@H]2Oc3ccc(O)cc3[C@@H]3CCC[C@@H]32)cc1 ?
Resp: active

Req: Could you check what this test reported for CON=C(C(=O)N[C@@H]1C(=O)N2C(C(=O)O)=C(CSC(=O)c3ccco3)CS[C@H]12)c1csc(N)n1 ?
Resp: inactive

Req: Could you check what this test reported for C[N+](C)([O-])CCNc1ccc(NCC[N+](C)(C)[O-])c2c1C(=O)c1c(O)ccc(O)c1C2=O ?
Resp: inactive

Req: Could you check what this test reported for CC(C)n1cnc2c(NCCc3ccc(O)cc3)nc(-c3csc4ccccc34)nc21 ?
Resp: active

Req: Could you check what this test reported for CCC[C@@H](C=O)NC(=O)[C@H](CC(C)C)NC(=O)[C@H](CC(C)C)NC(=O)OCc1ccccc1 (Cbz-Leu-Leu-[Nva]-aldehyde) ?
Resp: active

Req: Could you check what this test reported for CC[C@@]1([C@@H]2O[C@@H]([C@H]3O[C@@](O)(CO)[C@H](C)C[C@H]3C)C[C@H]2C)CC[C@H]([C@]2(C)CC[C@]3(C[C@H](O)[C@@H](C)[C@@H]([C@@H](C)[C@@H](OC)[C@H](C)C(=O)O)O3)O2)O1 ?
Resp: active

Req: Could you check what this test reported for O=C(O)C=Cc1ccc(Cn2ccnc2)cc1 ?
Resp: inactive

Req: Could you check what this test reported for Cc1[nH]c(C=C2C(=O)Nc3ccccc32)c(C)c1CCC(=O)O ?
Resp: active

Req: Could you check what this test reported for COc1ccc(S(=O)(=O)Nc2cc(-c3c(O)ccc4ccccc34)c(O)c3ccccc23)cc1 ?
Resp: active

Req: Could you check what this test reported for Cc1cc(C(=O)NOCCO)c(Nc2ccc(I)cc2F)n(C)c1=O ?
Resp: inactive

Req: Could you check what this test reported for C[C@H](NC(=O)Cc1cc(F)cc(F)c1)C(=O)N[C@H](C(=O)OC(C)(C)C)c1ccccc1 ?
Resp: inactive

Req: Could you check what this test reported for C=CC(=O)N1CCc2ccc(-n3c(=O)ccc4cnc5ccc(-c6cnn(C)c6)cc5c43)cc21 ?
Resp: active

Req: Could you check what this test reported for O=c1[nH]c(=O)n([C@H]2C[C@@H](O)[C@@H](CO)O2)cc1C=CBr ?
Resp: inactive

Req: Could you check what this test reported for COc1cc(C)c(Sc2cnc(NC(=O)c3ccc(CNC(C)C(C)(C)C)cc3)s2)cc1C(=O)N1CCN(C(C)=O)CC1 (configuration not stated) ?
Resp: inactive

Req: Could you check what this test reported for Cc1cnn(C)c1C(=O)Nc1cc(Nc2ccc3c(C=Cc4ccccn4)n[nH]c3c2)ccc1F ?
Resp: active

Req: Could you check what this test reported for Cc1cncc2cccc(S(=O)(=O)N3CCCN(C(=O)CN)C[C@@H]3C)c12 ?
Resp: active

Req: Could you check what this test reported for C[C@H](CCC(=O)O)[C@H]1CC[C@H]2[C@@H]3[C@H](O)C[C@@H]4C[C@H](O)CC[C@]4(C)[C@@H]3CC[C@]12C ?
Resp: inactive
